The reported numbers originate from patent US20230257479A1.

Target: T1, human 5T4ECDHis (mature protein of SEQ ID NO: 99) (human, UniProt Q13641 32-355)
T1 construct: ECD of human 5T4 (aa 1-355 of Uniprot Q13641) with C-terminal His tag; residues 1-31 are the signal peptide; also called ECD of human 5T4 with a C-terminal His tag
T1 sequence: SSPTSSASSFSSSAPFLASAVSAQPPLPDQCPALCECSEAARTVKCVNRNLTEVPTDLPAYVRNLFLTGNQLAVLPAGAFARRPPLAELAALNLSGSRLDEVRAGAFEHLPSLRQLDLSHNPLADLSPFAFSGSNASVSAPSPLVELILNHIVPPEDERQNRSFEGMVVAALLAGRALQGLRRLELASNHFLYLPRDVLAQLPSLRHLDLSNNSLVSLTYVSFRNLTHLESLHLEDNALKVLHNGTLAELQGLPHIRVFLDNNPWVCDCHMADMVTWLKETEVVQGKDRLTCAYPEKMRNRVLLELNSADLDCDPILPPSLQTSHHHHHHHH
Assay: BLI cross-block; competitor (immobilised): IgG1-5T4-127-FEAR
Listed below: corrected association response values for each entry.
property-name: corrected association response (nm)

binder	property-name	result-number
IgG1-5T4-106-FEAR (antibody, V domains shown, Monospecific, bivalent human IgG1 kappa with L234F, L235E, D265A, K409R (FEAR)) VH: EVQLVQSGAEVKKPGESLKISCKGSGYRFTSYWIGWVRQMPGKGLEWMGIIYPGDSDARYSPSFQGQVTISADKSISTAYLQWSSLKASDTGMYYCARSVLFDYWGQGTLVTVSS VL: AIQLTQSPSSLSASVGDRVTITCRASQGISSALAWYQQKPGKAPKLLIYDVSNLESGVPSRFSGSGSGTDFTLTISSLQPEDFATYYCQQFNSYPHTFGQGTKLEIK	corrected association response	-0.01
IgG1-5T4-127-FEAR (antibody, V domains shown, Monospecific, bivalent human IgG1 kappa with L234F, L235E, D265A, K409R (FEAR)) VH: EVQLLESRGGLVQPGGSLRLSCAASGFTFSSYAMSWVRQAPGKGLEWVSTISGSGGSTYYADSVKGRFTISRDNSKKTLYLQMNSLRAEDTAVYYCAKDWGSGSYPAEYFQHWGQGTLVTVSS VL: EIVLTQSPATLSLSPGERATLSCRASQSVSSYLAWYQQKPGQAPRLLIYDASNRATGIPARFSGSGSGTDFTLTISSLEPEDFAVYYCQQRSNWLMYTFGQGTKLEIK	corrected association response	-0.01
IgG1-5T4-A3-F405L (antibody, V domains shown, Variable region of A3 of WO2007106744 in a human IgG1 backbone with F405L; also called surrogate A3 antibody) VH: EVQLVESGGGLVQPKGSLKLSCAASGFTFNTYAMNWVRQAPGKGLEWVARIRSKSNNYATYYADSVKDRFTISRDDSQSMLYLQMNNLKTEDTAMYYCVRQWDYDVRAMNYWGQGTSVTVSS VL: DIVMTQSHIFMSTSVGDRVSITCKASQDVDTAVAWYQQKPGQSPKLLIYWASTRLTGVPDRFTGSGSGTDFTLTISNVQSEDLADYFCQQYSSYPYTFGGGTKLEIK	corrected association response	-0.01
IgG1-5T4-076-FEAR (antibody, V domains shown, Monospecific, bivalent human IgG1 kappa with L234F, L235E, D265A, K409R (FEAR)) VH: QVQLVQSGAEVKKPGASVKVSCKASGYTFTSYGISWVRQAPGQGLEWMGWISAYNGNTNYAQKLQGRVTMTTDTSTRTAYMELRSLRSDDTAVYYCARDPGYFDWLYGDYWGQGTLVTVSS VL: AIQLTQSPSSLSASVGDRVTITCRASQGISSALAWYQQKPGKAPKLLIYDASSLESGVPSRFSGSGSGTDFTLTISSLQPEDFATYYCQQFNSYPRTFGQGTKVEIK	corrected association response	-0.02
IgG1-5T4-207-FEAR (antibody, V domains shown, Monospecific, bivalent IgG1 FEAR) VH: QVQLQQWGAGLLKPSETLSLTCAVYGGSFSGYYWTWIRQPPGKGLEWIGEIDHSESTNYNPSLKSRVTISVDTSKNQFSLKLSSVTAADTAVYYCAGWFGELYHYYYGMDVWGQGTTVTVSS VL: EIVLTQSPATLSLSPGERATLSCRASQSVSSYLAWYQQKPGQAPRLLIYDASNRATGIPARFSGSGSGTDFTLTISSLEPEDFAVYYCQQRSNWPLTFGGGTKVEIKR	corrected association response	0.16
IgG1-5T4-A1-F405L (antibody, V domains shown, Variable region of A1 of WO2007106744 in a human IgG1 backbone with F405L; also called surrogate A1 antibody) VH: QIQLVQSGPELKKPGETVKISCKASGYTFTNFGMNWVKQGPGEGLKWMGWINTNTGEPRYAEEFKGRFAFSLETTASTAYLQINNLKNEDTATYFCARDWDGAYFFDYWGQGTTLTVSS VL: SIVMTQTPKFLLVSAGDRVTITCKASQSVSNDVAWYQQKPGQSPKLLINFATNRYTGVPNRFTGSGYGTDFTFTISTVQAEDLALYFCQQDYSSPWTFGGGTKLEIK	corrected association response	0.15
